Target: CDK15 (human) (UniProt Q96Q40)
Sequence (Q96Q40 whole entry, looked up): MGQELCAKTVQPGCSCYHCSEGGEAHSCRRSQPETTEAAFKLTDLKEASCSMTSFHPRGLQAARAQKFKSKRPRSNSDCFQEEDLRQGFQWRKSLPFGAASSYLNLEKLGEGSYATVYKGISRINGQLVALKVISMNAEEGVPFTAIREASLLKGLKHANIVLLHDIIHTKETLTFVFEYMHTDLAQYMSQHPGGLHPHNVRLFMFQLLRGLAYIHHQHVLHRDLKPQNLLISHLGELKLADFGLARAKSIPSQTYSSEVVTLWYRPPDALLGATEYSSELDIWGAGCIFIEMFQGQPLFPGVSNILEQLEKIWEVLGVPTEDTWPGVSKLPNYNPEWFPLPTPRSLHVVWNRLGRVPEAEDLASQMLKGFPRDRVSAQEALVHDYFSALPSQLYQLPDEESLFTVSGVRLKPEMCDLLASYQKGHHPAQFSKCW
Test: KINOMEscan competition binding
Conditions: compound 10.0 µM
Could you please report measured kinase still bound, per cent of control for the items listed next?
Give just the number in %; leave the unit off.

Input line: For the compound COc1cc(N2CCN(C)CC2)ccc1Nc1nc(N)c(C(=O)c2c(Cl)cccc2Cl)s1 , give its measured kinase still bound, per cent of control value.
Output line: 26

Input line: For the compound CN(C)C/C=C/C(=O)Nc1cccc(Nc2ncc3c(n2)N(C)c2ccccc2C(=O)N3C)c1 , give its measured kinase still bound, per cent of control value.
Output line: 84

Input line: For the compound C=CC(=O)Nc1cccc(Nc2nc(N[C@H]3CC[C@H](N(C)C)CC3)nc3c2ncn3C(C)C)c1 , give its measured kinase still bound, per cent of control value.
Output line: 100

Input line: For the compound Cc1ccc(NC(=O)c2cccc(C(C)(C)C#N)c2)cc1Nc1ccc2ncn(C)c(=O)c2c1 , give its measured kinase still bound, per cent of control value.
Output line: 100

Input line: For the compound OCCCNc1cc(-c2ccnc(Nc3cccc(Cl)c3)n2)ccn1 , give its measured kinase still bound, per cent of control value.
Output line: 100

Input line: For the compound O=C(NC1CC1)c1cccc(-c2ccc3c(NC(=O)C4CC4)n[nH]c3c2)c1 , give its measured kinase still bound, per cent of control value.
Output line: 84

Input line: For the compound O=C(O)c1ccc(Nc2ncc3c(n2)-c2ccc(Cl)cc2C(c2c(F)cccc2F)=NC3)cc1 , give its measured kinase still bound, per cent of control value.
Output line: 100

Input line: For the compound CCOc1cc2ncc(C#N)c(Nc3ccc(OCc4ccccn4)c(Cl)c3)c2cc1NC(=O)/C=C/CN(C)C , give its measured kinase still bound, per cent of control value.
Output line: 98

Input line: For the compound CCC(=O)N1CCN(c2ccc(-n3c(=O)ccc4cnc5ccc(-c6cnc7ccccc7c6)cc5c43)cc2C(F)(F)F)CC1 , give its measured kinase still bound, per cent of control value.
Output line: 88

Input line: For the compound Cc1cc([C@@H](C)Nc2ccccc2C(=O)O)c2nc(N3CCOCC3)cc(=O)n2c1 , give its measured kinase still bound, per cent of control value.
Output line: 100

Input line: For the compound O=C(NOC[C@H](O)CO)c1ccc(F)c(F)c1Nc1ccc(I)cc1F , give its measured kinase still bound, per cent of control value.
Output line: 78

Input line: For the compound COc1cc(C(=O)NC2CCN(C)CC2)ccc1Nc1ncc2c(n1)N(C1CCCC1)C(C)CC(=O)N2C (stereo not given) , give its measured kinase still bound, per cent of control value.
Output line: 100

Input line: For the compound CC[C@@H]1C(=O)N(C)c2cnc(Nc3ccc(C(=O)NC4CCN(C)CC4)cc3OC)nc2N1C1CCCC1 , give its measured kinase still bound, per cent of control value.
Output line: 100

Input line: For the compound C[C@@H](Oc1cc(-n2cnc3ccc(CN4CCN(C)CC4)cc32)sc1C(N)=O)c1ccccc1C(F)(F)F , give its measured kinase still bound, per cent of control value.
Output line: 67

Input line: For the compound COc1cc(C(=O)NC2CCN(C)CC2)ccc1Nc1ncc2c(n1)N(C1CCCC1)CCC(=O)N2C(C)C , give its measured kinase still bound, per cent of control value.
Output line: 100

Input line: For the compound Nc1ccc(-c2ccc3ncc4ccc(=O)n(-c5cccc(C(F)(F)F)c5)c4c3c2)cn1 , give its measured kinase still bound, per cent of control value.
Output line: 94

Input line: For the compound C=CC(=O)Nc1cccc(Oc2nc(Nc3ccc(N4CCN(C)CC4)cc3OC)ncc2Cl)c1 , give its measured kinase still bound, per cent of control value.
Output line: 100

Input line: For the compound N#Cc1c(NC(=O)c2cccc3ccccc23)sc2c1CCCC2 , give its measured kinase still bound, per cent of control value.
Output line: 69

Input line: For the compound CCCS(=O)(=O)Nc1ccc(F)c(C(=O)c2c[nH]c3ncc(-c4ccc(Cl)cc4)cc23)c1F , give its measured kinase still bound, per cent of control value.
Output line: 96

Input line: For the compound Cn1c(=O)n(-c2ccc(C(C)(C)C#N)cc2)c2c3cc(-c4cnc5ccccc5c4)ccc3ncc21 , give its measured kinase still bound, per cent of control value.
Output line: 100

Input line: For the compound O=C1Nc2ccc(I)cc2/C1=C/c1cc(Br)c(O)c(Br)c1 , give its measured kinase still bound, per cent of control value.
Output line: 100

Input line: For the compound C=CC(=O)Nc1cc(NC(=O)c2ccc(C)c(NC(=O)c3ccno3)c2)cc(C(F)(F)F)c1 , give its measured kinase still bound, per cent of control value.
Output line: 93

Input line: For the compound Cc1ccc2nc(NCCN)c3ncc(C)n3c2c1 , give its measured kinase still bound, per cent of control value.
Output line: 100

Input line: For the compound CCN1CCN(Cc2ccc(Nc3ncc4c(n3)N(C)c3ccccc3C(=O)N4C)cc2C(F)(F)F)CC1 , give its measured kinase still bound, per cent of control value.
Output line: 76

Input line: For the compound Cc1ccc(C(=O)Nc2cccc(C(F)(F)F)c2)cc1Nc1cncc(C(N)=O)c1 , give its measured kinase still bound, per cent of control value.
Output line: 100
